Data provenance: PubChem BioAssay AID1135

TARGET OF ASSAY: Alkaline phosphatase, tissue-nonspecific isozyme (Homo sapiens) (UniProt P05186)
Sequence (P05186 whole entry, looked up): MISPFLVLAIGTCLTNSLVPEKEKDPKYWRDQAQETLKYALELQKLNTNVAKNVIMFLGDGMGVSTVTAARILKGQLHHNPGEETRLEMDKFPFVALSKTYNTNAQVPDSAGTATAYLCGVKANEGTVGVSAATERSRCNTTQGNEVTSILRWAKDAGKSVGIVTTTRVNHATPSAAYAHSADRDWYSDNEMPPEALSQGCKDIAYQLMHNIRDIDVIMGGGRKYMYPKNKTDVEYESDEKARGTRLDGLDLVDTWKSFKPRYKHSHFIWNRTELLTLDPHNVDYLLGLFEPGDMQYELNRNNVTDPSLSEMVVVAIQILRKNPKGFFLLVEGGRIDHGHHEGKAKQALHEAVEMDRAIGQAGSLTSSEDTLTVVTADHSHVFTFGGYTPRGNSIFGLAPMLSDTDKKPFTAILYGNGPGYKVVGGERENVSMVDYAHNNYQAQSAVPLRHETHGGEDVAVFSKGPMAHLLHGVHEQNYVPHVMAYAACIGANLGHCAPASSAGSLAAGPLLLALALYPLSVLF
MEASUREMENT PROTOCOL: human TNAP enzyme inhibitors, primary screen, biochemical, luminescent, high phosphate acceptor level, uHTS (AID 1135);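 note: plate controls were DMSO wells for no effect and EDTA-quenched wells as full inhibition for full effect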
CONDITION CONTEXT: purified TNAP, CDP-star luminescence, 1 M DEA; at 20 µM; active compounds read high
Among all 200,000 compounds or so, about 65 (0.03%) were called active. This excerpt belongs to a sample that is enriched for actives.
ENDPOINT LABEL: inhibition (%)
Respond numerically; units are % and should not be typed.

COMPOUND	UNIT SYMBOL	inhibition
Cc1nc2ccccc2nc(C)c1=NOCc1ccc(Cl)cc1Cl	%	-3.2

# inhibition (compound: CCC(=O)Nc1c(C)n[nH]c1C ) is -6.7

# inhibition (compound: CCOc1ccc(CCN2C(=O)c3cccnc3C2=O)cc1OCC ) is 2.6

# inhibition (compound: C/C(=N\N=C(N)N)c1ccc(Cl)cc1 ) is -5.8
